Measured target: human H3R (Homo sapiens)
Sequence (Q9Y5N1 whole entry): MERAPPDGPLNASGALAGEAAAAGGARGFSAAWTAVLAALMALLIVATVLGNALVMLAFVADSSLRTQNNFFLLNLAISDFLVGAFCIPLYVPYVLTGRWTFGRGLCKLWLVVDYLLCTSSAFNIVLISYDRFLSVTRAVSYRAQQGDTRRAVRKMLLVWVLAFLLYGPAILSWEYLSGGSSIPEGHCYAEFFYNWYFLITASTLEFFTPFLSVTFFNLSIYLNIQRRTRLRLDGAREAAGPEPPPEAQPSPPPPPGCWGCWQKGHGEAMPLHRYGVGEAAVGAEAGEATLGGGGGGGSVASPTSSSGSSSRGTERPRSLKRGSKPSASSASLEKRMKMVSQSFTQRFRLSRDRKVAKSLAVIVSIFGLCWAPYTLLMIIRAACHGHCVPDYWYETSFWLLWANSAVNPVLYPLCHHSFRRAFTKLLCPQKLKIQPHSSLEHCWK
Assay explanation: β arrestin translocation
Attribute measured: EC50

Compound	Measurement
c1cc(Cc2cnc[nH]2)ccn1 [BP1.5375, 4-(1H-imidazol-4-yl-methyl)-pyridine]	~17 nM

----------
Measured target: recombinant hH3R (Homo sapiens)
Construct: expressed in transfected cells; host or cells: HEK 293 cells
Sequence (Q9Y5N1 whole entry): as the sequence (Q9Y5N1 whole entry) above
Assay explanation: [35S]GTPγS binding activation on recombinant hH3R expressed in HEK 293 cells
Assay type: biochemical
pEC50: −log10 of the molar value.

Smiles data	pEC50
c1cc(Cc2cnc[nH]2)ccn1	~9.00

----------
Measured target: recombinant human cytochrome P450 2C9 (Homo sapiens, UniProt P11712)
Sequence (P11712 whole entry): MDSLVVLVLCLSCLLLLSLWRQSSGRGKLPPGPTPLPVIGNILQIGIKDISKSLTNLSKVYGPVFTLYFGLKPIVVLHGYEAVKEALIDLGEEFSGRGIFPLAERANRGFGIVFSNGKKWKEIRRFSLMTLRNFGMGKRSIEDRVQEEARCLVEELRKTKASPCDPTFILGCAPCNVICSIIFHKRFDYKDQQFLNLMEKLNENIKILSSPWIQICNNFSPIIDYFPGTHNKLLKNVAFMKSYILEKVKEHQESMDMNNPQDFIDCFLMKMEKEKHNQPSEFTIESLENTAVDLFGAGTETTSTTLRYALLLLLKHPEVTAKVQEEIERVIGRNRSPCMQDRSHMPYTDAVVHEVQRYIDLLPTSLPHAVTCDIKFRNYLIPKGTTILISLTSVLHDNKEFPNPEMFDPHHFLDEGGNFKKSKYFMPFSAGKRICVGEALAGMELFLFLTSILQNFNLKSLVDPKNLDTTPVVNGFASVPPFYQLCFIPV
Assay explanation: inhibition of recombinant human cytochrome P450 2C9
Assay context: read-out: IC50 at 2C9 isoform
pIC50: −log10 of the molar value.
Attribute measured: pIC50

Compound	Measured target	Measurement
c1cc(Cc2cnc[nH]2)ccn1 [BP1.5375, 4-(1H-imidazol-4-yl-methyl)-pyridine]	recombinant human cytochrome P450 2C9 (Homo sapiens, UniProt P11712)	5.51

----------
Measured target: recombinant human cytochrome P450 2D6 (Homo sapiens, UniProt P10635)
Sequence (P10635 whole entry): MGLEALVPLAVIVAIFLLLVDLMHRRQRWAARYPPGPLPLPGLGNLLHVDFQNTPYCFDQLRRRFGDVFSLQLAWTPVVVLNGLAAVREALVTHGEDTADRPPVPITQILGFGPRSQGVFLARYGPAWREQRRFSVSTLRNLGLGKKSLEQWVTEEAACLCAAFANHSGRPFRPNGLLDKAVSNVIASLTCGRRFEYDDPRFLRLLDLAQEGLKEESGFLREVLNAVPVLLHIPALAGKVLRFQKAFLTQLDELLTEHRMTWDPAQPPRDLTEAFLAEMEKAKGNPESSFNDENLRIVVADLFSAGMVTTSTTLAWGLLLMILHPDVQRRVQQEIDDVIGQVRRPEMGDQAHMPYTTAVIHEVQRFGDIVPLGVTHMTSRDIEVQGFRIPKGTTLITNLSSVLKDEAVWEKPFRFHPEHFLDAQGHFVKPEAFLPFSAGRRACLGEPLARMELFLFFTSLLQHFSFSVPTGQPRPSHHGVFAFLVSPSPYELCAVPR
Assay explanation: inhibition of recombinant human cytochrome P450 2D6
Assay context: read-out: IC50 at 2D6 isoform
Attribute measured: IC50

Smiles data	Measurement
c1cc(Cc2cnc[nH]2)ccn1	≥ 100 µM

----------
Measured target: recombinant human cytochrome P450 3A4 (Homo sapiens, UniProt P08684)
Sequence (P08684 whole entry): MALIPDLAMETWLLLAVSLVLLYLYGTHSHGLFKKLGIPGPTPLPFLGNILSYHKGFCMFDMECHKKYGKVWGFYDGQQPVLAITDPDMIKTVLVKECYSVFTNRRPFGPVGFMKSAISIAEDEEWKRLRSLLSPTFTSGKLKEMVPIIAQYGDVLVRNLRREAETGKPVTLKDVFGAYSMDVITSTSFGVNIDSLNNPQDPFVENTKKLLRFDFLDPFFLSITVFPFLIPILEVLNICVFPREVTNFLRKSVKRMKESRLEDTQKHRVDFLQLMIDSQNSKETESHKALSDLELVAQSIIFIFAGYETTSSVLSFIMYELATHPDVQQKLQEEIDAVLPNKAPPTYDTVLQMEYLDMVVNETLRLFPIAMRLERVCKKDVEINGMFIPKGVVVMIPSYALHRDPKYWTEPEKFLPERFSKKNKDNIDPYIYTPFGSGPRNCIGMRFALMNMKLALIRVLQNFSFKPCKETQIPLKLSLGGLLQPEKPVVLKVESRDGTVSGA
Assay explanation: inhibition of recombinant human cytochrome P450 3A4
Assay context: read-out: IC50 at 3A4 isoform

Compound	IC50 (µM)
c1cc(Cc2cnc[nH]2)ccn1 [BP1.5375, 4-(1H-imidazol-4-yl-methyl)-pyridine]	29.3

Value source: patent US20120129892A1
